Test system: rat DGAT2 mRNA
TEST: Dose-dependent inhibition of DGAT2 in A10 cells, 0.62-150 nM (Example 22, Table 83)
Type: cell-based
TEST CONDITIONS: 1.85 nM
Strand notation (5' to 3'): a small letter for the sugar, then the base; units joined by * are phosphorothioate-linked, units joined directly phosphodiester-linked; [ ] holds rarer units or linkages, { } end groups; capitals alone tell only the bases. e = 2'-O-(2-methoxyethyl) (MOE); [5mC] = 5-methylcytosine; d = 2'-deoxy (DNA)
QUANTITY: percent inhibition of rat DGAT2
The answer should be written as a number, with no unit following it.

In plain terms, 372546 (antisense eT*eT*eG*dG*dT*d[5mC]*dT*dT*dG*dT*dG*dA*dT*eT*eG*eT) [compound 372546] has a documented percent inhibition of rat DGAT2 of 2

In plain terms, 372578 (antisense eT*eG*dT*dG*dT*d[5mC]*dT*dT*d[5mC]*dA*d[5mC]*d[5mC]*eA*eG) [compound 372578] has a documented percent inhibition of rat DGAT2 of 0

In plain terms, 372580 (antisense eG*eG*dT*dT*dG*dT*dG*dT*dG*dT*d[5mC]*dT*eT*e[5mC]) [compound 372580] has a documented percent inhibition of rat DGAT2 of 5

In plain terms, 372516 (antisense eT*eA*e[5mC]*dA*dG*dA*dA*dG*dG*d[5mC]*dA*d[5mC]*d[5mC]*e[5mC]*eA*eG) [compound 372516] has a documented percent inhibition of rat DGAT2 of 10
